system: rSsoPK4(284–635) (Saccharolobus solfataricus, UniProt Q97U41)
Construct: residues 284–635 (catalytic and part of central helical repeat domain), N-terminal S-tag, C-terminal 33-residue fusion domain with polyhistidine motif, pET-29b, expressed in E. coli
Sequence (Q97U41 284-635): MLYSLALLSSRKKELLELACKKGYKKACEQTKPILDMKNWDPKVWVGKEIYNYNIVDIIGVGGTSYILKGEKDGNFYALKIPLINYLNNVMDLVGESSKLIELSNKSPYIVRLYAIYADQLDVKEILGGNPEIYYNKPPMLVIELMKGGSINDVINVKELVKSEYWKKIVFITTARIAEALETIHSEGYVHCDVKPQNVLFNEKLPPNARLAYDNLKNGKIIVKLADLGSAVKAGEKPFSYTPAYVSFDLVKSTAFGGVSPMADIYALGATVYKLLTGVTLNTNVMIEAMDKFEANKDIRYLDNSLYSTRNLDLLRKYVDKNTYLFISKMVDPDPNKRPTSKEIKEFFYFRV
test.name: Filter paper [γ-32P]ATP kinase assay with MBP as phosphoacceptor, ATP routinely 100 µM, 5 mM MgCl2 and 5 mM MnCl2, 50 mM MOPS pH 7.0, 65 °C, in the presence of nucleotide effectors.
pIC50: −log10 of the molar value.
Each entry below carries its recorded pIC50.
test.readout: pIC50

>>> recorded_result("Nc1ncnc2c1ncn2[C@@H]1O[C@H](CO)[C@@H](OP(=O)(O)O)[C@H]1O [3ʹ-AMP, adenosine 3'-monophosphate]")
2.68
>>> recorded_result("Nc1ncnc2c1ncn2[C@@H]1O[C@H](COP(=O)(O)OP(=O)(O)O)[C@@H](O)[C@H]1O [ADP, adenosine 5'-diphosphate]")
3.72
>>> recorded_result("Nc1ncnc2c1ncn2[C@@H]1O[C@H](COP(=O)(O)O)[C@@H](O)[C@H]1O [5'AMP, adenosine 5'-monophosphate]")
3.04
>>> recorded_result("Nc1ncnc2c1ncn2[C@@H]1O[C@H](CO)[C@H]2OP(=O)(O)O[C@H]21")
2.81

meta.source: paper PMC5217372
